Quick reference: Emax of the listed items.
Measurement Target: UniProt:Q92847
Sequence (Q92847 whole entry): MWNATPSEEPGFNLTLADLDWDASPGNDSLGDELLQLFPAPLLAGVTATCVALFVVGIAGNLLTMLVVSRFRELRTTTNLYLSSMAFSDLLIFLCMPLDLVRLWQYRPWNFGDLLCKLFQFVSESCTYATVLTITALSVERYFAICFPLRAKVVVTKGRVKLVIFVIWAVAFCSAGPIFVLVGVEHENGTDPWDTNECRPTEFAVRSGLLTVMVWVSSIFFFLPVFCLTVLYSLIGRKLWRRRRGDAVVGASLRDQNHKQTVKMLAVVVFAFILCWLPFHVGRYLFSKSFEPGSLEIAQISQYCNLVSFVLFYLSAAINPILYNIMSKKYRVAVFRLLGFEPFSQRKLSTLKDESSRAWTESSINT
Assay Notes: Receptor Selection and Amplification Technology (R-SAT) assay
Type: cell-based
Parameters: expressed in transfected cells; host or cells: NIH3T3
Experimental Parameters: percent inhibition at saturating ligand, normalized to reference ligand Substance P analog = 100%; read-out: RSAT Eff(%)

[
  {
    "Molecule": "CC(=O)c1cn(CCCN2CCN(Cc3ccc(Cl)cc3Cl)CC2)c2c(C)cccc12",
    "Measurement Target": "UniProt:Q92847",
    "Emax [%]": 120
  },
  {
    "Molecule": "COc1ccc2c(C(C)=O)cn(CCCN3CCC(Oc4ccc(F)cc4)CC3)c2c1",
    "Measurement Target": "UniProt:Q92847",
    "Emax [%]": 70
  },
  {
    "Molecule": "CCCCC1CCN(CCCn2cc(C(C)=O)c3ccc(Br)cc32)CC1",
    "Measurement Target": "UniProt:Q92847",
    "Emax [%]": 93
  },
  {
    "Molecule": "CC(=O)c1cn(CCCN2C3CCC2CC(Oc2ccc(F)cc2)C3)c2c(C)cccc12 (centres unmarked)",
    "Measurement Target": "UniProt:Q92847",
    "Emax [%]": 98
  },
  {
    "Molecule": "COc1ccc2c(c1)c(C(C)=O)cn2CCCN1CCC(Oc2ccc(F)cc2)CC1",
    "Measurement Target": "UniProt:Q92847",
    "Emax [%]": 58
  },
  {
    "Molecule": "CC(=O)c1cn(CC(O)CN2CCC(c3nc4ccccc4s3)CC2)c2ccccc12 (centres unmarked)",
    "Measurement Target": "UniProt:Q92847",
    "Emax [%]": 58
  },
  {
    "Molecule": "CCCCC1CCN(CCCn2cc(C(C)=O)c3cccc(Cl)c32)CC1",
    "Measurement Target": "UniProt:Q92847",
    "Emax [%]": 80
  },
  {
    "Molecule": "CC(=O)c1cn(CCCN2CCC(c3nc(-c4cccnc4)no3)CC2)c2c(Cl)cccc12",
    "Measurement Target": "UniProt:Q92847",
    "Emax [%]": 101
  },
  {
    "Molecule": "COc1ccc2c(c1)c(C(C)=O)cn2CCCN1C2CCC1CC(Oc1ccc(Cl)cc1)C2 (centres unmarked)",
    "Measurement Target": "UniProt:Q92847",
    "Emax [%]": 105
  },
  {
    "Molecule": "O=C(c1cn(CCCN2CCC(Cc3ccccc3)CC2)c2ccccc12)C(F)(F)F",
    "Measurement Target": "UniProt:Q92847",
    "Emax [%]": 112
  },
  {
    "Molecule": "CC(=O)c1cn(CCCN2CCC(Oc3ccc(Cl)cc3)CC2)c2c(Cl)cccc12",
    "Measurement Target": "UniProt:Q92847",
    "Emax [%]": 107
  },
  {
    "Molecule": "CCCOC1CCN(CC(C)Cn2c(=O)sc3ccccc32)CC1 (centres unmarked)",
    "Measurement Target": "UniProt:Q92847",
    "Emax [%]": 71
  },
  {
    "Molecule": "CC(=O)c1cn(CCCN2C3CCC2CC(CC(=O)c2ccc(Cl)cc2)C3)c2c(Cl)cccc12 (centres unmarked)",
    "Measurement Target": "UniProt:Q92847",
    "Emax [%]": 41
  },
  {
    "Molecule": "CC(=O)c1cn(CCCN2CCC(Oc3ccc(F)cc3)CC2)c2c(Cl)cccc12",
    "Measurement Target": "UniProt:Q92847",
    "Emax [%]": 120
  },
  {
    "Molecule": "CC(=O)c1cn(CCCN2CCC(Oc3ccc(Cl)cc3)CC2)c2c(Br)cccc12",
    "Measurement Target": "UniProt:Q92847",
    "Emax [%]": 105
  },
  {
    "Molecule": "COc1cccc2c(C#N)cn(CCCN3C4CCC3CC(CCc3ccc(Cl)cc3)C4)c12 (centres unmarked)",
    "Measurement Target": "UniProt:Q92847",
    "Emax [%]": 77
  },
  {
    "Molecule": "COc1cccc2c(C#N)cn(CCCN3CCC(CCOc4ccc(Cl)cc4)CC3)c12",
    "Measurement Target": "UniProt:Q92847",
    "Emax [%]": -3
  },
  {
    "Molecule": "CC(=O)c1cn(CCCN2CCC(Oc3ccc(F)cc3)CC2)c2cc(Br)ccc12",
    "Measurement Target": "UniProt:Q92847",
    "Emax [%]": 64
  },
  {
    "Molecule": "O=C(c1cn(CCCN2CCC(CCOc3ccc(Cl)cc3)CC2)c2ncccc12)C(F)(F)F",
    "Measurement Target": "UniProt:Q92847",
    "Emax [%]": 37
  },
  {
    "Molecule": "O=C(c1cn(CCCN2CCCC(Oc3ccc(Cl)cc3)C2)c2ncccc12)C(F)(F)F (centres unmarked)",
    "Measurement Target": "UniProt:Q92847",
    "Emax [%]": 2
  },
  {
    "Molecule": "CC(=O)c1cn(CCCN2CCC(Oc3ccc(F)cc3)CC2)c2ccc(Br)cc12",
    "Measurement Target": "UniProt:Q92847",
    "Emax [%]": 75
  },
  {
    "Molecule": "COc1cccc2c(C#N)cn(CCCN3CCC(c4nc(-c5ccncc5)no4)CC3)c12",
    "Measurement Target": "UniProt:Q92847",
    "Emax [%]": 40
  },
  {
    "Molecule": "CCCOC1CCN(CCCn2cc(C(C)=O)c3cccc(OC)c32)CC1 [drawing 333]",
    "Measurement Target": "UniProt:Q92847",
    "Emax [%]": 112
  },
  {
    "Molecule": "COc1ccc2c(C(C)=O)cn(CCCN3C4CCC3CC(OCC3CC3)C4)c2c1 (centres unmarked)",
    "Measurement Target": "UniProt:Q92847",
    "Emax [%]": 93
  },
  {
    "Molecule": "CC(=O)c1cn(CCCN2CCN(CCOc3ccccc3)CC2)c2c(Cl)cccc12",
    "Measurement Target": "UniProt:Q92847",
    "Emax [%]": 91
  },
  {
    "Molecule": "CC(=O)c1cn(CCCN2C3CCC2CC(CCc2ccc(Cl)cc2)C3)c2ncccc12 (centres unmarked)",
    "Measurement Target": "UniProt:Q92847",
    "Emax [%]": 87
  },
  {
    "Molecule": "CC(C)CC(=O)c1cn(CCCN2CCC(Oc3ccccc3Cl)CC2)c2ccccc12",
    "Measurement Target": "UniProt:Q92847",
    "Emax [%]": 96
  },
  {
    "Molecule": "CC(=O)c1cn(CCCNCCOc2ccccc2)c2c(C)cccc12",
    "Measurement Target": "UniProt:Q92847",
    "Emax [%]": 100
  },
  {
    "Molecule": "CC(c1ccccc1)N1CCN(CCCn2cc(C(=O)C(F)(F)F)c3ccccc32)CC1 (centres unmarked)",
    "Measurement Target": "UniProt:Q92847",
    "Emax [%]": 92
  },
  {
    "Molecule": "CC(=O)c1cn(CCCN2CCC(Oc3ccccc3Cl)CC2)c2ccc(Br)cc12",
    "Measurement Target": "UniProt:Q92847",
    "Emax [%]": 74
  },
  {
    "Molecule": "O=C(c1cn(CCCN2C3CCC2CC(Oc2ccc(Cl)cc2)C3)c2ccccc12)C(F)(F)F (centres unmarked)",
    "Measurement Target": "UniProt:Q92847",
    "Emax [%]": 97
  },
  {
    "Molecule": "COc1cccc2c(C(C)=O)cn(CCCN3CCN(Oc4ccccc4Cl)CC3)c12",
    "Measurement Target": "UniProt:Q92847",
    "Emax [%]": 100
  },
  {
    "Molecule": "CCCCCC=C1CCN(CCCn2cc(C(C)=O)c3ccccc32)CC1",
    "Measurement Target": "UniProt:Q92847",
    "Emax [%]": 139
  },
  {
    "Molecule": "CC(=O)c1cn(CCCCN2CCN(C(C)c3ccccc3)CC2)c2ccccc12 (centres unmarked)",
    "Measurement Target": "UniProt:Q92847",
    "Emax [%]": 69
  },
  {
    "Molecule": "CC(=O)c1cn(CC(O)CN2CCC(C(=O)c3ccccc3)CC2)c2ccccc12 (centres unmarked)",
    "Measurement Target": "UniProt:Q92847",
    "Emax [%]": 26
  },
  {
    "Molecule": "COc1ccc2c(c1)C1CCN(CCCn3cc(C(C)=O)c4ccccc43)CC1C2 (centres unmarked)",
    "Measurement Target": "UniProt:Q92847",
    "Emax [%]": 110
  },
  {
    "Molecule": "CCCCC[C@H]1C[C@H]2CC[C@@H](C1)N2CCCn1cc(C(C)=O)c2cccc(C)c21",
    "Measurement Target": "UniProt:Q92847",
    "Emax [%]": 105
  },
  {
    "Molecule": "CC(=O)c1cn(CCCN2CCN(CCOc3ccccc3)CC2)c2c(C#N)cccc12",
    "Measurement Target": "UniProt:Q92847",
    "Emax [%]": 86
  }
]
